target: LRRK2 (endogenous, HiBit tagged) (Homo sapiens, UniProt Q5S007); construct: endogenous in cells; host or cells: HEK293 cells with HiBit knock-in at the endogenous LRRK2 locus, stably expressing firefly luciferase; assay: Endogenous LRRK2 degradation assay, endogenous gene C-terminally HiBit-tagged in HEK293 cells (Nano-Glo Dual Luciferase); assay type: cell-based; details: endogenous HiBit-tagged LRRK2 in HEK293 cells, 24 hours treatment; read-out: Endogenous WT Dmax
Sequence (Q5S007 whole entry): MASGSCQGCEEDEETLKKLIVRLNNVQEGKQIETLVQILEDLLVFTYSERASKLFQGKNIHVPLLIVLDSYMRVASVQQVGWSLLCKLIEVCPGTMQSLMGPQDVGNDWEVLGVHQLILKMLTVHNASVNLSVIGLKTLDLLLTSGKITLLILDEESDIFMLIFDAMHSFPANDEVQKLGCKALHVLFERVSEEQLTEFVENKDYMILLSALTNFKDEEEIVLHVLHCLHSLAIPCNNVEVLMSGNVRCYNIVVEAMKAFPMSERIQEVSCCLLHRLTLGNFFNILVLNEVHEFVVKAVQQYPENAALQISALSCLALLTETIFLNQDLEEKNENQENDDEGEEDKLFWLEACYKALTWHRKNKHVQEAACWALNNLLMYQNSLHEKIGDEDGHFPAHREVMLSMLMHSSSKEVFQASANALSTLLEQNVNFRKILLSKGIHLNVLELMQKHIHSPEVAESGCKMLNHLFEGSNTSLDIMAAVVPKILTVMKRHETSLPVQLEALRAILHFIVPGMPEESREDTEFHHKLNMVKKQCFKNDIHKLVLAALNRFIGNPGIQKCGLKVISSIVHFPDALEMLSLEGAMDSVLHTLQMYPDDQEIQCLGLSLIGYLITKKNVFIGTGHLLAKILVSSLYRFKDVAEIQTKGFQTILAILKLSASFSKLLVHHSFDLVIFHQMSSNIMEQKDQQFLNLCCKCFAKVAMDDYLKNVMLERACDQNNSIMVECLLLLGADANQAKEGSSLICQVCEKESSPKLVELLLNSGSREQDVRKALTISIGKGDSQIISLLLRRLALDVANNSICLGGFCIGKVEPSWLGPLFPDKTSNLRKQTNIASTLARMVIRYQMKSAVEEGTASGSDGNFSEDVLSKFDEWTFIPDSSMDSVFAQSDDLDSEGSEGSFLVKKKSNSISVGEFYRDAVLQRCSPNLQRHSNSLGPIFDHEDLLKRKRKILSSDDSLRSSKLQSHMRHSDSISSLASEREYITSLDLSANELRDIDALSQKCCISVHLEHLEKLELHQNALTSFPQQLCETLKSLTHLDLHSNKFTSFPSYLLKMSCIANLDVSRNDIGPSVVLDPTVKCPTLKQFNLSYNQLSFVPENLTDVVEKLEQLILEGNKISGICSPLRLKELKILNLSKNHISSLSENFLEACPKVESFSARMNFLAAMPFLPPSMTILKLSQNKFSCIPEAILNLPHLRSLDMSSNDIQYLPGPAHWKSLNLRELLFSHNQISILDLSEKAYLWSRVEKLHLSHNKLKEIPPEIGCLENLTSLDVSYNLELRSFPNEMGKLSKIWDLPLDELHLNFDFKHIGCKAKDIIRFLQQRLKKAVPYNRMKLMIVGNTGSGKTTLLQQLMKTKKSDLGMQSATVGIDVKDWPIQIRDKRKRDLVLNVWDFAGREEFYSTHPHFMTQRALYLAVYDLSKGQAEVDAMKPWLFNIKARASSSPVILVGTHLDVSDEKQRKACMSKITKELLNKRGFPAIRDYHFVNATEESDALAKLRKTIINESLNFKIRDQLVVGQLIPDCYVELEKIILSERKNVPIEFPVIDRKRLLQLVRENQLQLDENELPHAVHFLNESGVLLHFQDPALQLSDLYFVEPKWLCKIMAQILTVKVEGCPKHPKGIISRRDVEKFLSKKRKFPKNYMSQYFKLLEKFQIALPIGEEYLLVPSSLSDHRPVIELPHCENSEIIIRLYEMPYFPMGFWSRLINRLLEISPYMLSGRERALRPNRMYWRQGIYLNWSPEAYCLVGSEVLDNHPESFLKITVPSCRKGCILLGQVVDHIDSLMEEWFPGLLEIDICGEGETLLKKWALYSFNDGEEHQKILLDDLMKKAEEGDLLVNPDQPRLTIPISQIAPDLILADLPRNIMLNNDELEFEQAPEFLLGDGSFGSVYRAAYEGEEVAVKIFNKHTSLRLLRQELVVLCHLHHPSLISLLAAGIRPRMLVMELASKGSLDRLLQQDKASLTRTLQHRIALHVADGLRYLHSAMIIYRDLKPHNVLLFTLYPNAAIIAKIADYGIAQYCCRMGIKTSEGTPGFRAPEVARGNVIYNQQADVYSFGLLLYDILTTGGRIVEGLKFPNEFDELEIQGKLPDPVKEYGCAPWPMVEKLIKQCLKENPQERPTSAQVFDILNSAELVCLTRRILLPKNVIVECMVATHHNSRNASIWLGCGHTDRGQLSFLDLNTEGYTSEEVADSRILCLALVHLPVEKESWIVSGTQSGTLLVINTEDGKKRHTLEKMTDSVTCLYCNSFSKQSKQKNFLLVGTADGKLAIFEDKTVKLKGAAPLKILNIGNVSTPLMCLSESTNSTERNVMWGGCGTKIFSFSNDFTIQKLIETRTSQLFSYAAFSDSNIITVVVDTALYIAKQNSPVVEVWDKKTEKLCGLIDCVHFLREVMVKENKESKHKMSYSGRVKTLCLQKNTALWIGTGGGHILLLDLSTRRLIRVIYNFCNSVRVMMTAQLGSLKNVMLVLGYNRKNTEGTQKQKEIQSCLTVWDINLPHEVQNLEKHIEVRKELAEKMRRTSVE
Recorded Dmax, one value per entry.

For orientation, consider the following solved cases.
Q: Dmax lookup needed for COc1c(N2CCC(CN3CCN(CC4CCN(c5cc(-c6n[nH]c7ccc(OC8(C)CC8)cc67)ncn5)CC4)[C@H](C)C3)CC2)ccc2c1CN(C1CCC(=O)NC1=O)C2=O (some centres unmarked) [Compound 255] , thanks.
Ans: 50 to 70%

Q: Please do the same for CC1(Oc2ccc3[nH]nc(-c4cc(N5CCC(CC6(F)CCN(CC7CCN(c8ccc9c(c8F)CN(C8CCC(=O)NC8=O)C9=O)CC7)CC6)CC5)ncn4)c3c2)CC1 (centres unmarked) [Compound 206] as well.
Ans: ≥ 70%

Q: Please do the same for CC1(Oc2ccc3[nH]nc(-c4cc(N5CCC(CN6CCN(CC7CCN(c8ccc9c(c8F)CN(C8CCC(=O)NC8=O)C9=O)CC7)C(C)(C)C6)CC5)ncn4)c3c2)CC1 (centres unmarked) [Compound 236] as well.
Ans: 50 to 70%

Q: Please do the same for CC1(Oc2ccc3[nH]nc(-c4cc(N5CCC(CC6(F)CCN(CC7CCN(c8c(F)cc9c(c8F)CN(C8CCC(=O)NC8=O)C9=O)CC7)CC6)CC5)ncn4)c3c2)CC1 (centres unmarked) [Compound 223] as well.
Ans: 50 to 70%

Now turn to the next molecule.
Q: Dmax lookup needed for CC1(Oc2ccc3n[nH]c(-c4cc(N5CCC(CN6CCN(CC7(F)CCN(c8ccc9c(c8F)CN(C8CCC(=O)NC8=O)C9=O)CC7)CC6)CC5)ncn4)c3c2)CC1 (centres unmarked) [Compound 209] , thanks.
Ans: ≥ 70%

----------
molecular target: LRRK2 (endogenous, HiBit tagged) (Homo sapiens, UniProt Q5S007); construct: endogenous in cells; host or cells: HEK293 cells with HiBit knock-in at the endogenous LRRK2 locus, stably expressing firefly luciferase; assay: Endogenous LRRK2 degradation assay, endogenous gene C-terminally HiBit-tagged in HEK293 cells (Nano-Glo Dual Luciferase); format: cell-based; conditions: endogenous HiBit-tagged LRRK2 in HEK293 cells, 24 hours; read-out: **Endogenous WT Dmax (%)
Endpoint: Dmax

For orientation, consider the following solved cases.
Q: Dmax lookup needed for CC1(Oc2ccc3n[nH]c(-c4cc(N5CC(F)(CN6CCN(CC7CCN(c8ccc9c(c8)C(=O)N(C8CCC(=O)NC8=O)C9=O)CC7)CC6)C5)ncn4)c3c2)CC1 (stereo not drawn) , thanks.
Ans: ≥ 70%

Q: Please do the same for CC1(Oc2ccc3[nH]nc(-c4cc(C5CCN(CC6CCN(CC7CCN(c8ccc9c(c8)C(=O)N(C8CCC(=O)NC8=O)C9=O)CC7)CC6)CC5)ncn4)c3c2)CC1 (stereo not drawn) as well.
Ans: 50 to 70%

Q: Please do the same for C[C@H]1CN(c2cc(-c3[nH]nc4ccc(OC5(C)CC5)cc34)ncn2)CCN1CC1CCN(CC2CCN(c3cccc4c3C(=O)N(C3CCC(=O)NC3=O)C4=O)CC2)CC1 (stereo partly drawn) as well.
Ans: ≥ 70%

---
Q: Dmax lookup needed for CC1(Oc2ccc3n[nH]c(-c4cc(N5CCC(CN6CCN(CC7CCN(c8ccc9c(c8)CN(C8CCC(=O)NC8=O)C9=O)CC7)CC6)CC5)ncn4)c3c2)CC1 (stereo not drawn) , thanks.
Ans: ≥ 70%

Q: Please do the same for C[C@H]1CN(c2cc(-c3[nH]nc4ccc(OC5(C)CC5)cc34)ncn2)CCN1CCN1CCN(CC2CCN(c3ccc4c(c3)CN(C3CCC(=O)NC3=O)C4=O)CC2)CC1 (stereo partly drawn) as well.
Ans: ≥ 70%

Q: Please do the same for C[C@H]1CN(c2cc(-c3[nH]nc4ccc(OC5(C)CC5)cc34)ncn2)CCN1CCC1CCN(C(=O)C2CCN(c3ccc4c(c3)C(=O)N(C3CCC(=O)NC3=O)C4=O)CC2)CC1 (stereo partly drawn) as well.
Ans: ≥ 70%

Q: Please do the same for C[C@H]1CN(c2cc(-c3[nH]nc4ccc(OC5(C)CC5)cc34)ncn2)CCN1CCC1(F)CCN(CC2CCN(c3ccc4c(c3)CN(C3CCC(=O)NC3=O)C4=O)CC2)CC1 (stereo partly drawn) as well.
Ans: ≥ 70%

Q: Please do the same for CC1(Oc2ccc3n[nH]c(-c4cc(N5CC(OC6CCN(CC7CCN(c8ccc9c(c8)C(=O)N(C8CCC(=O)NC8=O)C9=O)CC7)CC6)C5)ncn4)c3c2)CC1 (stereo not drawn) as well.
Ans: ≥ 70%

Q: Please do the same for C[C@H]1CN(c2cc(-c3n[nH]c4ccc(OC5(C)CC5)cc34)ncn2)CCN1CC1(F)CCN(CC2CCN(c3ccc4c(c3)C(=O)N(C3CCC(=O)NC3=O)C4=O)CC2)CC1 (stereo partly drawn) as well.
Ans: 50 to 70%

Q: Please do the same for C[C@H]1CN(c2cc(-c3n[nH]c4ccc(OC5(C)CC5)cc34)ncn2)CCN1CC1(F)CN(CC2CCN(c3ccc4c(c3)C(=O)N(C3CCC(=O)NC3=O)C4=O)CC2)C1 (stereo partly drawn) as well.
Ans: < 50%

Q: Please do the same for CC1(Oc2ccc3[nH]nc(-c4cc(N5CCN(C[C@@H]6CC(=O)N(CC7CCN(c8ccc9c(c8)C(=O)N(C8CCC(=O)NC8=O)C9=O)CC7)C6)CC5)ncn4)c3c2)CC1 (single isomer, unassigned) as well.
Ans: ≥ 70%
